This section presents compounds with their documented TGI values.
- Tested on: OVCAR-8 ovarian
- experimental_details: NCI tumour cell line growth inhibition, 48 h
attribute_measured: TGI

In [3]: df
Out[3]:
                                   compound     result
0  Cc1cc(C(=O)N[C@@H](CCC(=O)O)C(=O)O)sc1CC[C@@H]1CNc2nc(N)[nH]c(=O)c2C1  > 90.6 µM
1  O=C1NC(=O)[C@@H](OCC2CCCCC2)[C@@H]2OCC3OC(C(O)C3O)C12 (some centres undefined)   > 100 µM
2  COc1ccc(C(=O)Nc2ccc(S(=O)(=O)NCC(=O)O)cc2)cc1   > 100 µM
3  CCOC(=O)C12CCSC1C1(C#N)C(C#N)=CC2(N=P(c2ccccc2)(c2ccccc2)c2ccccc2)n2c(=O)n(-c3ccccc3)c(=O)n21 (centres undefined)   > 100 µM

---

- System: UACC-62 melanoma
- experimental_details: NCI tumour cell line growth inhibition, 48 h; in the data active = GI50 below about 0.43 µM; inactive = the rest
Outcomes: 1 (yes) for active, 0 (no) for inactive

>>> print(df.to_string())
                                   compound  class_name
0             O=c1c2[nH]c3ccccc3c2nc2n1CCS2      0 (no)
1  C=CCC(N[C@@H](CO)c1ccccc1)c1ccccn1 (stereo partly specified)      0 (no)
2      CCOC(=O)/C(=C/c1ccccc1)C(=O)c1ccccc1      0 (no)
3  CCc1nc(-n2c(CC)nc3ccccc3c2=O)nc(N)c1-c1ccc(Cl)cc1      0 (no)
4           O=C(Nc1ccc(Cl)cc1F)c1cc(F)ccc1O     1 (yes)
5  Cc1ccc(Nc2[nH]c(C(=O)c3ccc(Cl)cc3)c(N)c2C(=S)Nc2ccccc2)nc1      0 (no)

---

- System: OVCAR-4 ovarian
- experimental_details: NCI tumour cell line growth inhibition, 48 h
attribute_measured: TGI (µM)

In [3]: df
Out[3]:
                                   compound  attribute_measured  inequality_operator  readout_number
0  CCOC(=O)C1(Br)C(c2ccccc2)NC(=O)N(C2OC(COC(=O)c3ccccc3)C(OC(=O)c3ccccc3)C2OC(=O)c2ccccc2)C1(C)Br (stereo not given)                 TGI                    =            43.4
1  COc1cccc(CCn2c(N)c(C(=O)O)c3ccc([N+](=O)[O-])cc3c2=O)c1                 TGI                    >             100
2  CCN1CCC2(CC1)NC(=O)c1c(c3ccc(Cl)c(Cl)c3n1C)C2C#N (stereo not given)                 TGI                    =            15.1
3  C=CCC(N[C@@H](CO)c1ccccc1)c1ccccn1 (stereo not given in full)                 TGI                    >             100
4               CCNc1nc(N)c(C(=O)c2cccs2)s1                 TGI                    =            77.6

---

- Test system: OVCAR-4 ovarian
- experimental_details: NCI tumour cell line growth inhibition, 48 h
Returns True if the recorded TGI is greater than or equal to 20 µM, and False otherwise.

>>> df
                                    compound  class_name
 0  COC(=O)/C=C\[C@@H]1[C@H](C)N1S(=O)(=O)c1ccc(C)cc1 (stereo partly specified)        True
 1  COc1ccccc1-c1ccc2nc(NC(=O)Nc3cc(C(F)(F)F)cc(C(F)(F)F)c3)sc2c1       False
 2  Nc1cc(S(=O)(=O)O)cc2cc(S(=O)(=O)O)c(N=Nc3ccc(-c4ccc(N=Nc5c(S(=O)(=O)O)cc6cc(S(=O)(=O)O)cc(N)c6c5O)cc4)cc3)c(O)c12        True
 3                      O=Nc1ccc(O)c2ncccc12        True
 4         COc1cccc2c1nc1cccc(OC)c1[n+]2[O-]        True
 5  CC(O)CCNC(=O)Nc1c(C(F)(F)F)cc(-c2ccccc2)[nH]c1=O (stereo unspecified)        True
 6    C/C(=C1/N=C(c2ccccc2)OC1=O)c1ccc(C)cc1        True
 7          O=C(c1ccco1)c1ccccc1C(=O)c1ccco1        True
 8  Clc1ccccc1C1N2CCCCC2[C@@H]2c3[nH]c4ccccc4c3CCN12 (stereo partly specified)        True
 9  CN/C=C(/c1ccc(OC)cc1)C(O)c1ccc(OC)c(OC)c1 (stereo unspecified)        True
10  COc1cc(-c2cc(-c3nc4cc(Cl)c(Cl)cc4[nH]3)[nH]n2)cc(OC)c1OC       False

---

- System: NCI-H522 lung
- experimental_details: NCI tumour cell line growth inhibition, 48 h
attribute_measured: TGI

>>> df
                                    compound  attribute_measured     result
 0        COc1ccc(OC)c(/C=C/C(=O)C(C)(C)C)c1                 TGI    30.4 µM
 1  Cc1coc2c1CC1OC1(C)CCC1OC1(C)C2 (configuration not stated)                 TGI   > 100 µM
 2  Brc1cccc(Nc2ncnc3sc4c(c23)CCC(Nc2cccc(Br)c2)C4)c1 (configuration not stated)                 TGI   > 100 µM
 3  CC(O)CCNC(=O)Nc1c(C(F)(F)F)cc(-c2ccccc2)[nH]c1=O (configuration not stated)                 TGI   > 100 µM
 4  CC(N)(Cc1c[nH]c2ccccc12)C(=O)O (configuration not stated)                 TGI  > 2500 µM
 5  Cc1cc(S(=O)(=O)Nc2nc3ccccc3[nH]2)c(S)cc1Cl                 TGI   > 100 µM
 6        CN(C)C(=S)/N=c1\ssc(=S)n1-c1ccccc1                 TGI    27.8 µM
 7      CC(=O)c1cccc(Nc2c3ccccc3nc3occc23)c1                 TGI    4.62 µM
 8            O=C1NC2(CCCC2)/C(=N\O)C12CCCC2                 TGI   > 100 µM
 9  CS(=O)(=O)N1CC(CCl)c2ccc(NCCN)cc21 (configuration not stated)                 TGI   > 100 µM
10  O=C(/C=c1\oc(=O)/c(=C/C(=O)c2ccc(Cl)cc2)oc1=O)c1ccc(Cl)cc1                 TGI    72.9 µM
11                CC(=O)/C=C(/C=N/O)c1ccccc1                 TGI   > 100 µM

---

- Test system: HOP-62 NSCLC
- experimental_details: NCI tumour cell line growth inhibition, 48 h
Where a SMILES comes first, the peptide text is derived from it. The star is where a group is joined. Boc = CC(C)(C)OC(=O)*
attribute_measured: TGI (µM)

compound	attribute_measured	readout_units	inequality_operator	readout_number
CC(N)(Cc1c[nH]c2ccccc12)C(=O)O (centres undefined)	TGI	µM	>	2500
Nc1ccc2ncc(Nc3ccc(F)cc3)nc2c1	TGI	µM	>	100
COC(=O)c1ccc(/C=C2\Cc3ccccc3C2=O)cc1	TGI	µM	>	100
CC(=O)c1cccc(Nc2c3ccccc3nc3occc23)c1	TGI	µM	=	20.6
CN(CCCCN1CCCC1)CCCCN(C)C(=O)Cc1ccc(Cl)c(Cl)c1	TGI	µM	=	34.8
O=C(O)c1c([N+](=O)[O-])cc(C(F)(F)F)cc1[N+](=O)[O-]	TGI	µM	>	100
Nc1nc(N)c2ncn(-c3ccc(Cl)c(Cl)c3)c2n1	TGI	µM	=	87.7
COC(=O)/C=C\[C@@H]1[C@H](C)N1S(=O)(=O)c1ccc(C)cc1 (some centres undefined)	TGI	µM	>	100
Clc1nc(Cl)c2ncn(C/C=C/Cn3cnc4c(Cl)nc(Cl)nc43)c2n1	TGI	µM	=	32.9
CN(C)CCN1C(=O)c2cccc3c(N)ccc(c23)C1=O	TGI	µM	>	25
O=C1N[C@H]2C(=O)c3c(Cl)sc(Cl)c3[C@H]2O1	TGI	µM	=	34.5
C=CC(=O)NCCOc1cccc(Nc2cc(NCCCNC(=O)C3CCC3)c(Br)cn2)c1	TGI	µM	=	4.98
CN(C)c1ccc(/C=C/c2ccnc3ccc4ccccc4c23)cc1	TGI	µM	>	100
NC(=S)N/N=C1\C(=O)N(CCc2ccccc2)C(=O)C1C(=O)NCCc1ccccc1 (centres undefined)	TGI	µM	>	100
Cc1ccc(/C=N/NS(=O)(=O)c2ccccc2)cc1	TGI	µM	>	100
COC(=O)C(Cc1c[nH]c2ccccc12)NC(=O)C(Cc1c[nH]c2ccccc12)NC(=O)C(Cc1c[nH]c2ccccc12)NC(=O)OC(C)(C)C (stereo not drawn) (Boc-Trp-Trp-Trp-OMe; configuration not given here)	TGI	µM	=	32.7
FC(F)(F)c1ccc2c(c1)nc(Cc1ccc(Cl)c(Cl)c1)n2CC1CCCN2CCCCC12 (centres undefined)	TGI	µM	>	100
C=C1C(=O)CCC1C(=O)O (centres undefined)	TGI	µM	>	100
C[C@@H]1[C@H]2[C@H](C=C3[C@@H]4CC[C@H]5Cc6nc7c(nc6C[C@]5(C)[C@H]4C[C@@H](O)[C@@]32C)C[C@@H]2CC[C@H]3C4=C[C@@H]5O[C@@]6(CC[C@](C)(CO)O6)[C@@H](C)[C@@]5(O)[C@@]4(C)[C@H](O)C[C@@H]3[C@@]2(C)C7)O[C@]12CCC(C)(C)O2	TGI	µM	=	5.73
